Recorded viability at 1 µM by entry
Test: Antiproliferative activity against human skin fibroblast assessed as cell viability at 1 uM by MTT assay
Type: cell-based
Details: human skin fibroblasts, read-out: Activity
Provide only the numeric value, understood in %.

COMPOUND STRUCTURE STRING | ENDPOINT LABEL | OUTPUT UNIT | MEASURED
Cc1ccc(N2CCn3c(COc4ccc(Cl)cc4C)nnc32)cc1 | viability at 1 µM | % | 74.9

Q: So what's the measured viability at 1 µM for this one? Cc1cc(Cl)ccc1OCc1nnc2n1CCN2c1ccccc1
Ans: 79.2

Q: # query: viability at 1 µM of entry Clc1ccc(N2CCn3c(COc4ccc(Cl)cc4Cl)nnc32)cc1
Ans: 83

Q: # viability at 1 µM lookup, item Cc1ccc(N2CCn3c(COc4ccc(Cl)cc4)nnc32)cc1
Ans: 88.1

* * *

Experiment: Lipophilicity, log kw in acetonitrile aqueous system at pH 3.5
Assay type: physicochemical
ENDPOINT LABEL: logKw
Please respond with just the number, no unit label.

# example entries with known answers
COMPOUND STRUCTURE STRING | logKw
COc1ccc(N2CCn3cnnc32)cc1 | 1.56
COc1ccc(N2CCn3c(COc4ccc(Cl)cc4)nnc32)cc1 | 1.54
Cc1ccc(N2CCn3c(COc4ccc(Cl)cc4)nnc32)cc1 | 3.04
c1ccc(OCc2nnc3n2CCN3c2ccccc2)cc1 | 1.37

Q: Any idea what its logKw is? The compound is Clc1ccc(OCc2nnc3n2CCN3c2ccc(Cl)cc2)cc1
Ans: 3.23

Q: What does the record list as logKw for c1ccc(N2CCn3cnnc32)cc1 ?
Ans: 1.37

Q: Entry under review: Clc1ccc(N2CCn3cnnc32)cc1 . Reported logKw?
Ans: 2.7

Q: Give the measured logKw of Clc1ccc(OCc2nnc3n2CCN3c2ccc(Cl)c(Cl)c2)c(Cl)c1 .
Ans: 3.32

Q: For Cc1cc(Cl)ccc1OCc1nnc2n1CCN2c1ccc(Cl)cc1 , what is its reported logKw?
Ans: 3.7

* * *

Entries and their measured viability at 1 µM follow.
Assay: Antiproliferative activity against human RPMI cells assessed as cell viability at 1 uM by MTT assay
Type: functional
Conditions: read-out: Activity
Give the value, in units of %, as a plain number.

Sample records with viability at 1 µM:
COMPOUND STRUCTURE STRING | OUTPUT UNIT | viability at 1 µM
Cc1cc(Cl)ccc1OCc1nnc2n1CCN2c1ccc(Cl)cc1 | % | 46.4
Cc1ccc(N2CCn3c(COc4ccc(Cl)cc4C)nnc32)cc1 | % | 85.5
Clc1ccc(N2CCn3cnnc32)cc1 | % | 104
Cc1cc(Cl)ccc1OCc1nnc2n1CCN2c1ccccc1 | % | 112
COc1ccc(N2CCn3cnnc32)cc1 | % | 102

Okay, now this compound:
Q: Fill in the blank: the reported viability at 1 µM of Cc1ccc(N2CCn3c(COc4ccc(Cl)cc4)nnc32)cc1 is ____.
Ans: 104

* * *

Parameter viability at 50 µM: see the listing below.
Assay: Antiproliferative activity against human RPMI cells assessed as cell viability at 50 uM by MTT assay
Type: functional
Conditions: read-out: Activity
Write the number in % without appending the unit.

Below are worked cases with known answers.
COMPOUND STRUCTURE STRING | ENDPOINT LABEL | OUTPUT UNIT | MEASURED
Cc1ccc(N2CCn3c(COc4ccc(Cl)cc4)nnc32)cc1 | viability at 50 µM | % | 39.5
Cc1cc(Cl)ccc1OCc1nnc2n1CCN2c1ccccc1 | viability at 50 µM | % | 114
COc1ccc(N2CCn3c(COc4ccc(Cl)cc4)nnc32)cc1 | viability at 50 µM | % | 98.4

Let's switch to this compound now.
Q: Entry under review: COc1ccc(N2CCn3cnnc32)cc1 . Reported viability at 50 µM?
Ans: 96.5
